Target: p53R2/M1 (p53R2 and hRRM1 reconstituted RNR) (Homo sapiens, UniProt Q7LG56)
Construct: 6xHis; made in house
Sequence (Q7LG56 1-351): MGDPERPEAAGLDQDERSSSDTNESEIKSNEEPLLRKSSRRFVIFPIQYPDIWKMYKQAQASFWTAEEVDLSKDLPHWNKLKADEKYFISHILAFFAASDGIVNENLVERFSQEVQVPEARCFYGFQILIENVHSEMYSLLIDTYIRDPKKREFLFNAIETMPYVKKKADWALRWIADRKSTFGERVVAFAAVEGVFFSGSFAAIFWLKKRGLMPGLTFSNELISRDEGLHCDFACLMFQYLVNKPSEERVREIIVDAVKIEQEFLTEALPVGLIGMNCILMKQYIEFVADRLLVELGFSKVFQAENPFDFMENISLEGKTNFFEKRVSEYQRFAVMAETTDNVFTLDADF
Test: In vitro RNR activity assay with reconstituted p53R2/hRRM1 ([3H]CDP reduction)
Type: biochemical
Conditions: compound in dH2O + FeCl3; read-out: In vitro RR activity (IC50 ± sd) p53R2/M1
measured metric: IC50 (µM)

> print(dat)
                     molecule  observed.result
1  NC(=O)NO [HU, Hydroxyurea]             1990

* * *

IC50 reference
System: RNR containing hRRM2 or p53R2
Construct: In vitro RR activity (IC50) Average; other: compound in 1% DMSO; average of M2/M1 and p53R2/M1; other: compound in 2.5% DMSO; other: compound in dH2O + FeCl3; other: compound in dH2O; Inhi; fused on or other part: 6xHis tag on each subunit
Test: In vitro RNR activity assay, both reconstituted RNRs compared (average, selective index, comparison in words)
Format: biochemical, human
Details: compound in dH2O; average of M2/M1 and p53R2/M1; read-out: In vitro RR activity (IC50) Average
Method: To reconstitute an active RNR, three 6′His-tag human RNR subunit proteins (hRRM2, p53R2, and hRRM1) were prokaryotically expressed, purified using Ni-resin affinity chromatography, and stored in 50 mM Tris-HCl, pH 7.4, 100 mM KCl at −70° C. according to standard techniques. The purified proteins were subjected to SDS-PAGE analysis. […] To reconstitute RNR, 1 μM of hRRM2 or p53R2 protein was incubated with 0.5 μM hRRM1 protein in multiple-well plates. […]
measured metric: IC50 (µM)

> print(dat)
                                   compound                subject.of.test  measured.metric  qualifying.sign  observed.result
1  NNC(N)=O [SC, semicarbazide, reference compound]  RNR containing hRRM2 or p53R2             IC50                >             5000
2                NC(=O)NO [HU, Hydroxyurea]  RNR containing hRRM2 or p53R2             IC50                =              178

* * *

molecular target: M2/M1 (hRRM2 and hRRM1 reconstituted RNR) (Homo sapiens, UniProt P31350); construct: 6xHis; made in house; test: In vitro RNR activity assay with reconstituted hRRM2/hRRM1 ([3H]CDP reduction); type: biochemical; conditions: compound in 2.5% DMSO; read-out: In vitro RR activity (IC50 ± sd) M2/M1
Sequence (P31350 whole entry): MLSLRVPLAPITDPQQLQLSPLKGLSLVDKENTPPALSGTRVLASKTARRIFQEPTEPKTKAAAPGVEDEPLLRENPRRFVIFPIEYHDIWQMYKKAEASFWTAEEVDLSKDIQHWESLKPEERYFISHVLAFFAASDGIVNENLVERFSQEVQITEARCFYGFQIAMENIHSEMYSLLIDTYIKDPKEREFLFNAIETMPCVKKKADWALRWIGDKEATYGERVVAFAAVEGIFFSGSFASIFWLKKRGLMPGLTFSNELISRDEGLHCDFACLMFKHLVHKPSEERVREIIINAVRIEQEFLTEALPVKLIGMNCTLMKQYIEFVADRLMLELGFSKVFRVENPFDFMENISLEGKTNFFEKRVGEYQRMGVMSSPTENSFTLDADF
pIC50: −log10 of the molar value.
measured metric: pIC50

> print(dat)
                                   compound  measured.metric  qualifying.sign  observed.result
1    O=C(NO)NN=Cc1cc(Cl)cc(Cl)c1O [SB-HSC2]            pIC50                =             3.96
2  O=C(NO)NN=Cc1ccc([N+](=O)[O-])s1 [SB-HSC24]            pIC50                =             4.28
3                NC(=O)NO [HU, Hydroxyurea]            pIC50                =             3.81
4  Cc1c2ccccc2c(C=NNC(=O)NO)c2ccccc12 [SB-HSC29]            pIC50                <             3.60
